Biological target: Urease (Canavalia ensiformis) (UniProt P07374)
Sequence (P07374 whole entry, looked up): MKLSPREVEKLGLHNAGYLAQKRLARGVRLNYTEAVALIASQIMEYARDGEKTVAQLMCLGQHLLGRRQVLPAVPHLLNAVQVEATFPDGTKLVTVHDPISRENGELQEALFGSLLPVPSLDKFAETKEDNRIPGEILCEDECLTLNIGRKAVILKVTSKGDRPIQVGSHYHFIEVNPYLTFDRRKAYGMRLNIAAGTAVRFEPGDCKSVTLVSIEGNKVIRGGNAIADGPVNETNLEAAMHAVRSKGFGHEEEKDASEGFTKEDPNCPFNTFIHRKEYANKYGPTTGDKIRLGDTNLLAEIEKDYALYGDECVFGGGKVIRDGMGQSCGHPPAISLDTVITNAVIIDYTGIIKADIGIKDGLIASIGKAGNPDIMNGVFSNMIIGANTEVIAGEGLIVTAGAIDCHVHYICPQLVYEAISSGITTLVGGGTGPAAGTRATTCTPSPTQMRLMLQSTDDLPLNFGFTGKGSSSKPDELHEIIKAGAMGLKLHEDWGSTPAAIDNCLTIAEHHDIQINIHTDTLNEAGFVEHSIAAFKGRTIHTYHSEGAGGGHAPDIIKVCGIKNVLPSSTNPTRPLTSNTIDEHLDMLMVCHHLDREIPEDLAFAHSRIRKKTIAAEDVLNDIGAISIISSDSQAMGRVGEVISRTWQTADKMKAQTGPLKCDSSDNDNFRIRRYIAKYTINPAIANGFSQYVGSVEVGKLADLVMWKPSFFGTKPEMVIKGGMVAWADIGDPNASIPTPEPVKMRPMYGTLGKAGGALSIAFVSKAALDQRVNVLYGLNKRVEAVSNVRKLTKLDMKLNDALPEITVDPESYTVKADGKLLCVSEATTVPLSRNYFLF
Experiment: Inhibition of Canavalia ensiformis (jack bean) urease assessed as ammonia production using urea as substrate at 10 uM after 15 min by indophenol method
# if value of inhibition reaches 20%, tag 1; if it stays below, tag 0

Some solved entries appear below for comparison.
# Smiles Entry, Group Label
measured = [
    ("NC(N)=S", 1),
    ("CC1=CC2=NC(=O)/C(=C\\NNC(=O)c3ccc(O)cc3)C(=O)N2C=C1", 1),
    ("CC(=O)c1ccccc1N/C=C1\\C(=O)N=C2C=C(C)C=CN2C1=O", 1),
]

Now turn to the next molecule.
Determine whether measured inhibition meets or exceeds 20% for `CC1=CC2=NC(=O)/C(=C\NNC(=O)c3ccccc3)C(=O)N2C=C1`
0

###

Target: Urease (Canavalia ensiformis)
Experiment: Inhibition of Canavalia ensiformis (jack bean) urease assessed as ammonia production using urea as substrate at 1 uM after 15 min by indophenol method
Criterion: inhibition meeting or surpassing 20%. Met: y. Not met: n.

Field: example entries. Status: answers known.
# Smiles Entry, Group Label
records = [
    ("CC1=CC2=NC(=O)/C(=C\\Nc3ccc(C)cn3)C(=O)N2C=C1", "y"),
    ("CC1=CC2=NC(=O)/C(=C\\NNC(=O)c3ccc([N+](=O)[O-])cc3)C(=O)N2C=C1", "y"),
    ("CC(=O)c1ccccc1N/C=C1\\C(=O)N=C2C=C(C)C=CN2C1=O", "y"),
    ("CC1=CC2=NC(=O)/C(=C\\Nc3ccc(F)cc3)C(=O)N2C=C1", "n"),
]

Could you tell me if the measured inhibition of `CC1=CC2=NC(=O)CC(=O)N2C=C1` reaches 20% or more?
n

Quick check, inhibition >= 20%? `NC(N)=S`
n

inhibition >= 20% for `CC1=CC2=NC(=O)/C(=C\Nc3ccccc3S)C(=O)N2C=C1` ?
y

Decide: is the reported value of inhibition for `CC1=CC2=NC(=O)/C(=C\NNC(=O)c3ccc(O)cc3)C(=O)N2C=C1` equal to or greater than 20%?
n

Dear colleague, could you confirm whether `CC1=CC2=NC(=O)/C(=C\NNC(=O)c3ccc(Cl)cc3)C(=O)N2C=C1` has inhibition at or above 20%?
n

Hello, I need to know if `CC(=O)c1ccc(N/C=C2\C(=O)N=C3C=C(C)C=CN3C2=O)cc1` has measured inhibition not below 20%. Thanks!
n

Could you verify whether the entry `CC1=CC2=NC(=O)/C(=C\NNC(=O)c3ccc(Br)cc3)C(=O)N2C=C1` shows inhibition of no less than 20%?
n

Reported inhibition at or above 20%? `CC1=CC2=NC(=O)/C(=C\Nc3ccc([N+](=O)[O-])cn3)C(=O)N2C=C1`
y

###

Biological target: UniProtKB P07374
Test: Inhibition of Canavalia ensiformis (jack bean) urease assessed as ammonia production using urea as substrate at 0.01 uM after 15 min by indophenol method
Reported Metric: inhibition
Please answer in the form of a number followed by its unit of measurement.

Query the reported inhibition for UniProtKB P07374; item: `CC1=CC2=NC(=O)/C(=C\Nc3cc(C)ccn3)C(=O)N2C=C1`
1%

Param readout = inhibition; param system = UniProtKB P07374; param query = `CC1=CC2=NC(=O)/C(=C\NNC(=O)c3ccccc3)C(=O)N2C=C1` ; response: value
-1%

Recall the recorded inhibition for `CC(=O)c1ccc(N/C=C2\C(=O)N=C3C=C(C)C=CN3C2=O)cc1` with UniProtKB P07374 and state it.
-3%

###

Target: Urease (Canavalia ensiformis)
Experiment: Inhibition of Canavalia ensiformis (jack bean) urease assessed as ammonia production using urea as substrate at 0.1 uM after 15 min by indophenol method
Reported Metric: inhibition (%)
Value expressed in %; do not type the unit.

Which value of inhibition has been reported for `NC(N)=S` in the records?
8

What value of inhibition has been recorded for this entry: `CC1=CC2=NC(=O)/C(=C\Nc3ccc(C)cn3)C(=O)N2C=C1`
11

Record request: inhibition value, item `CC1=CC2=NC(=O)/C(=C\NNC(=O)c3ccc(Br)cc3)C(=O)N2C=C1`
-2

State the recorded inhibition for this entry: `CC1=CC2=NC(=O)/C(=C\Nc3ccc(F)cc3)C(=O)N2C=C1`
6

Query: inhibition; subject: `CC1=CC2=NC(=O)/C(=C\Nc3ccc([N+](=O)[O-])cn3)C(=O)N2C=C1`
6

Report inhibition for `CC1=CC2=NC(=O)/C(=C\Nc3ccccc3S)C(=O)N2C=C1` please.
28

###

# reported inhibition; entries follow
Molecular target: UniProtKB P07374
Assay: Inhibition of Canavalia ensiformis (jack bean) urease assessed as ammonia production using urea as substrate at 10 uM after 15 min by indophenol method

The cases that follow already have their inhibition on record.
# Smiles Entry, Measured On, Reported Metric, Reported
data = [
    ("CC1=CC2=NC(=O)/C(=C\\Nc3ccc([N+](=O)[O-])cn3)C(=O)N2C=C1", "UniProtKB P07374", "inhibition", "36%"),
    ("CC1=CC2=NC(=O)/C(=C\\Nc3ccc(C)cn3)C(=O)N2C=C1", "UniProtKB P07374", "inhibition", "48%"),
    ("CC1=CC2=NC(=O)/C(=C\\NNC(=O)c3ccc(Cl)cc3)C(=O)N2C=C1", "UniProtKB P07374", "inhibition", "14%"),
    ("CC1=CC2=NC(=O)/C(=C\\Nc3ccccc3S)C(=O)N2C=C1", "UniProtKB P07374", "inhibition", "73%"),
    ("CC1=CC2=NC(=O)/C(=C\\Nc3cccc(F)c3)C(=O)N2C=C1", "UniProtKB P07374", "inhibition", "3%"),
    ("CC1=CC2=NC(=O)/C(=C\\NNC(=O)c3ccc([N+](=O)[O-])cc3)C(=O)N2C=C1", "UniProtKB P07374", "inhibition", "60%"),
]

Endpoint output: inhibition of `CC1=CC2=NC(=O)/C(=C\Nc3c(C)cc(C)cc3C)C(=O)N2C=C1` . Value?
-8%

Entry `CC(=O)c1ccc(N/C=C2\C(=O)N=C3C=C(C)C=CN3C2=O)cc1` : reported inhibition = ?
5%

Reported inhibition, compound `CC1=CC2=NC(=O)/C(=C\Nc3ccc(F)cc3)C(=O)N2C=C1` : ____
21%

What measured inhibition goes with `CC1=CC2=NC(=O)/C(=C\Nc3ccccc3F)C(=O)N2C=C1` ?
44%

Tell me the measured inhibition of `CC1=CC2=NC(=O)/C(=C\NNC(=O)c3ccc(Br)cc3)C(=O)N2C=C1` , please.
23%

Entry under review: `CC(=O)c1cccc(N/C=C2\C(=O)N=C3C=C(C)C=CN3C2=O)c1` . Reported inhibition?
28%

# get_value(readout='inhibition', item= `CC1=CC2=NC(=O)/C(=C\Nc3cc(C)ccn3)C(=O)N2C=C1` )
20%

Fill in: inhibition of `CC1=CC2=NC(=O)CC(=O)N2C=C1` is ___
26%

###

Entries and their measured inhibition follow.
Molecular target: Urease (Canavalia ensiformis)
Experiment: Inhibition of Canavalia ensiformis (jack bean) urease assessed as ammonia production using urea as substrate at 1 uM after 15 min by indophenol method
Respond numerically; units are % and should not be typed.

Answered cases to consult:
# Smiles Entry, Measured On, inhibition, %
data = [
    ("CC1=CC2=NC(=O)/C(=C\\Nc3ccccc3F)C(=O)N2C=C1", "Urease (Canavalia ensiformis)", 26),
    ("CC1=CC2=NC(=O)/C(=C\\Nc3c(C)cc(C)cc3C)C(=O)N2C=C1", "Urease (Canavalia ensiformis)", -1),
    ("CC1=CC2=NC(=O)/C(=C\\Nc3cc(C)ccn3)C(=O)N2C=C1", "Urease (Canavalia ensiformis)", 16),
    ("CC1=CC2=NC(=O)/C(=C\\NNC(=O)c3ccccc3)C(=O)N2C=C1", "Urease (Canavalia ensiformis)", 6),
]

# context switch: different compound, same inhibition
I am curious: what inhibition value has been reported for `CC(=O)c1cccc(N/C=C2\C(=O)N=C3C=C(C)C=CN3C2=O)c1` ?
8

###

Target: Urease (Canavalia ensiformis) (UniProt P07374)
Assay: Inhibition of Canavalia ensiformis (jack bean) urease assessed as ammonia production using urea as substrate at 0.01 uM after 15 min by indophenol method
Reported Metric: inhibition

In the examples that follow, each entry is paired with its recorded inhibition.
# Smiles Entry, Reported Metric, Reported
rows = [
    ("CC(=O)c1ccccc1N/C=C1\\C(=O)N=C2C=C(C)C=CN2C1=O", "inhibition", "11%"),
    ("CC1=CC2=NC(=O)/C(=C\\Nc3ccccc3S)C(=O)N2C=C1", "inhibition", "22%"),
    ("NC(N)=S", "inhibition", "8%"),
    ("CC1=CC2=NC(=O)/C(=C\\Nc3ccccc3F)C(=O)N2C=C1", "inhibition", "3%"),
]

Consider the molecule `CC(=O)c1cccc(N/C=C2\C(=O)N=C3C=C(C)C=CN3C2=O)c1` and give its measured inhibition.
-1%
